Test system: liver
protocol text: In vivo gene expression, luciferase luminescence in the liver after tail vein administration (Experimental Example 4)
assay context: BALB/c mouse, tail vein, mRNA 0.05 mg/kg, 4.5 hr after administration; LNP cationic lipid:DOPC:Chol:DMG-PEG2k = 52.5:7.5:40:1.5, prepared as in Experimental Example 2
result type: amount of luminescence (photons/sec) in liver

# compound, experimental value
measured = [
    ("CCCCCCCC/C=C\\CCCCCCCC(=O)Oc1ccc(CC(=O)OCCC2CCN(CCSSCCN3CCC(CCOC(=O)Cc4ccc(OC(=O)CCCCCCC/C=C\\C[C@H](CCCCCC)OC(C)=O)cc4)CC3)CC2)cc1", "3.94E+09"),
    ("CCCCCCCC/C=C\\CCCCCCCC(=O)Oc1ccc(CC(=O)OCCC2CCN(CCSSCCN3CCC(CCOC(=O)Cc4ccc(OC(=O)CCCCCCCCCCC(CCCCCC)OC(=O)CCCCCCC)cc4)CC3)CC2)cc1 (centres unmarked)", "6.65E+09"),
    ("CCCCCCCC/C=C\\CCCCCCCC(=O)Oc1ccc(CC(=O)OCCC2CCN(CCSSCCN3CCC(CCOC(=O)Cc4ccc(OC(=O)CCCC(=O)OC[C@H](COC(=O)CCCCCCC)OC(=O)CCCCCCC)cc4)CC3)CC2)cc1", "3.76E+09"),
    ("CCCCCCCC/C=C\\CCCCCCCC(=O)Oc1ccc(CC(=O)OCCC2CCN(CCSSCCN3CCC(CCOC(=O)Cc4ccc(OC(=O)CCCCCCC/C=C\\CCCCCCCC)cc4)CC3)CC2)cc1 [Comparative Example, reference compound]", "1.52E+09"),
    ("CCCCCCCC(=O)OC(CC=CCCCCCCCC(=O)Oc1ccc(CC(=O)OCCC2CCN(CCSSCCN3CCC(CCOC(=O)Cc4ccc(OC(=O)CCCCCCCC=CCC(CCCCCC)OC(=O)CCCCC)cc4)CC3)CC2)cc1)CCCCCC (centres unmarked)", "4.43E+09"),
]

---

protocol text: Particle size, PdI and zeta potential of mRNA-encapsulating LNPs by dynamic light scattering (Experimental Example 2)
Type: physicochemical
assay context: mRNA-encapsulating LNP containing the cationic lipid, dispersion in PBS, dynamic light scattering (Table 5-3)
result type: PdI

# molecule, result type, experimental value
measured = [
    ("CCCCCCCC/C=C\\CCCCCCCC(=O)Oc1ccc(CC(=O)OCCC2CCN(CCSSCCN3CCC(CCOC(=O)Cc4ccc(OC(=O)CCCC(=O)OC(CC(=O)OCCCC)(CC(=O)OCCCC)CC(=O)OCCCC)cc4)CC3)CC2)cc1 [compound 58]", "PdI", 0.065),
    ("CCCCCCCC/C=C\\CCCCCCCC(=O)Oc1ccc(CC(=O)OCCC2CCN(CCSSCCN3CCC(CCOC(=O)Cc4ccc(OC(=O)CCCCCCC/C=C\\CC(CCCCCC)OC(=O)C(CC)CCCC)cc4)CC3)CC2)cc1 (centres unmarked) [compound 166]", "PdI", 0.047),
    ("CCCCCCCC/C=C\\CCCCCCCC(=O)Oc1ccc(CC(=O)OCCC2CCN(CCSSCCN3CCC(CCOC(=O)Cc4ccc(OC(=O)CCCCCCC/C=C\\CCCCCCCC)cc4)CC3)CC2)cc1 [Comparative Example, reference compound]", "PdI", 0.099),
    ("CCCCCCCC/C=C\\CCCCCCCC(=O)Oc1ccc(CC(=O)OCCC2CCN(CCSSCCN3CCC(CCOC(=O)Cc4ccc(OC(=O)CCCCCCCC(OC(=O)CC)C(CCCCCCCC)OC(=O)CC)cc4)CC3)CC2)cc1 (centres unmarked) [compound 94]", "PdI", 0.048),
    ("CCCCCCCC(=O)OC(CC=CCCCCCCCC(=O)Oc1ccc(CC(=O)OCCC2CCN(CCSSCCN3CCC(CCOC(=O)Cc4ccc(OC(=O)CCCCCCCC=CCC(CCCCCC)OC(=O)CCCCC)cc4)CC3)CC2)cc1)CCCCCC (centres unmarked) [compound 162]", "PdI", 0.041),
    ("CCCCCCC(C/C=C\\CCCCCCCC(=O)Oc1ccc(CC(=O)OCCC2CCN(CCSSCCN3CCC(CCOC(=O)Cc4ccc(OC(=O)CCCCCCC/C=C\\CC(CCCCCC)OC(=O)c5ccc(OCC)c(OCC)c5)cc4)CC3)CC2)cc1)OC(=O)c1ccc(OCC)c(OCC)c1 (centres unmarked) [compound 173]", "PdI", 0.070),
    ("CCCCCCCC/C=C\\CCCCCCCC(=O)Oc1ccc(CC(=O)OCCC2CCN(CCSSCCN3CCC(CCOC(=O)Cc4ccc(OC(=O)CCCC(=O)N(CCCCCC)CCCCCC)cc4)CC3)CC2)cc1 [compound 124]", "PdI", 0.111),
    ("CCCCCCCC/C=C\\CCCCCCCC(=O)Oc1ccc(CC(=O)OCCC2CCN(CCSSCCN3CCC(CCOC(=O)Cc4ccc(OC(=O)CCCCCCCCCCC(CCCCCC)OC(=O)CCCCCCC)cc4)CC3)CC2)cc1 (centres unmarked) [compound 145]", "PdI", 0.034),
]

These data points were gathered from patent EP4692059A1.
